# target: T1, Cynomolgus CXCR2 (cynomolgus, UniProt Q28519 3-353 (rhesus entry))
# T1 chain: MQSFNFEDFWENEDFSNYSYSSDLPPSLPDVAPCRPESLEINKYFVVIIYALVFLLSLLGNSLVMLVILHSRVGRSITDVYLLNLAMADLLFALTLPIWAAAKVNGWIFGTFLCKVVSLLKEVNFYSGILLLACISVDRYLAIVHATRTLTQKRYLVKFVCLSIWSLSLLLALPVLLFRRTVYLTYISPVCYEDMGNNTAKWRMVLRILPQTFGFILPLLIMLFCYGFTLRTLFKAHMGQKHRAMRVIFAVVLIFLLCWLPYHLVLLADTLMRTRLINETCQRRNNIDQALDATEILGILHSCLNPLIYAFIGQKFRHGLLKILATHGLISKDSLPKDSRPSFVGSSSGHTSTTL
# test: cell-based or functional assay
experimental.endpoint: FLIPR % inhibition of max (%)
The answer is to be given in %; state only the numeric part.

What does the record list as FLIPR % inhibition of max for CXCR20024 (VHH, Bivalent: two VHH joined by a GlySer linker; also called 163E3-35GS-163E3; not shown: C-terminal c-myc tag and His6 tag coded by pAX100) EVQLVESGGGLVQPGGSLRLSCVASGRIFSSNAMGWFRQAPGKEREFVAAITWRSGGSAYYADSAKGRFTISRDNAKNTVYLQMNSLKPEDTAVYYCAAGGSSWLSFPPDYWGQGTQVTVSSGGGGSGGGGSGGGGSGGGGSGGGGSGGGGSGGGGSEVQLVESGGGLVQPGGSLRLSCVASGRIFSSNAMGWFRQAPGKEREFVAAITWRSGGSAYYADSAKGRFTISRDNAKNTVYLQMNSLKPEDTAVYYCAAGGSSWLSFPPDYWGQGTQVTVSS ?
100
